Where do the numbers come from? From patent US11224609B2.

Tested on: TC-32 (Ewing sarcoma, EWS-FLI1 Type 1) cell line
stated_conditions: selectivity, GI50 in PC-3 over GI50 in TC-32
Reported GI50 ratio PC-3:TC-32 values for the following compounds.
Respond numerically, and do not add a unit to the figure.

Would you please look over these solved cases?
COC(=O)C(Cc1c[nH]c2cc(-n3cc(-c4ccccc4)nn3)ccc12)NC(=O)C(OC)C1Cc2cc3cc(OC4CC(OC5CC(O)C(O)C(C)O5)C(O)C(C)O4)c(C)c(O)c3c(O)c2C(=O)C1OC1CC(OC2CC(OC3CC(C)(O)C(O)C(C)O3)C(O)C(C)O2)C(O)C(C)O1 (stereo not shown) [Analogue 54] :: 5.7
COC(=O)C(Cc1c[nH]c2cc(F)ccc12)NC(=O)C(OC)C1Cc2cc3cc(OC4CC(OC5CC(O)C(O)C(C)O5)C(O)C(C)O4)c(C)c(O)c3c(O)c2C(=O)C1OC1CC(OC2CC(OC3CC(C)(O)C(O)C(C)O3)C(O)C(C)O2)C(O)C(C)O1 (stereo not shown) [Analogue 56] :: 6.9
C=CCn1cc(CC(NC(=O)C(OC)C2Cc3cc4cc(OC5CC(OC6CC(O)C(O)C(C)O6)C(O)C(C)O5)c(C)c(O)c4c(O)c3C(=O)C2OC2CC(OC3CC(OC4CC(C)(O)C(O)C(C)O4)C(O)C(C)O3)C(O)C(C)O2)C(=O)OC)c2ccccc21 (stereo not shown) [Analogue 47] :: 1.2

Consider the record given below.
q: Return reported GI50 ratio PC-3:TC-32; argument: COC(=O)C(Cc1ccccc1)NC(=O)C(Cc1ccccc1)NC(=O)C(OC)C1Cc2cc3cc(OC4CC(OC5CC(O)C(O)C(C)O5)C(O)C(C)O4)c(C)c(O)c3c(O)c2C(=O)C1OC1CC(OC2CC(OC3CC(C)(O)C(O)C(C)O3)C(O)C(C)O2)C(O)C(C)O1 (stereo not shown) [Analogue 63, MTMSA-Phe-Phe]
a: 4.9
